Tested on: M14 melanoma
EXPERIMENT_DESCRIPTION: NCI tumour cell line growth inhibition, 48 h
MEASURED_ENDPOINT: TGI (µM)
Numbers only, in µM.

Sample answers from the record:
[[record]]
compound = "CN1CCN(c2cc(C(=O)Nc3cc4cc(-c5cnn(C)c5)ccc4cn3)ccn2)CC1"
study_target = "M14 melanoma"
measured_endpoint = "TGI"
unit_annotation = "µM"
number = 13.3

[[record]]
compound = "CCN(CC)C(=S)SS(=O)(=O)c1ccc(Cl)cc1"
study_target = "M14 melanoma"
measured_endpoint = "TGI"
unit_annotation = "µM"
number = 31

[[record]]
compound = "C[C@]12Cc3cnn(-c4ccc(F)cc4)c3NC1CC[C@@H]1C2CC[C@@]2(C)C1CC[C@@H]2O (some centres undefined)"
study_target = "M14 melanoma"
measured_endpoint = "TGI"
unit_annotation = "µM"
number = 23.1

[[record]]
compound = "COc1ccc(/C=C2\\CCC(C)/C(=C\\c3ccc(OC)c(OC)c3)C2=O)cc1OC (centres undefined)"
study_target = "M14 melanoma"
measured_endpoint = "TGI"
unit_annotation = "µM"
number = 31.2

[[record]]
compound = "c1ccc(C2=NOC3(c4ccccc4)SC4CCCCC4CN23)cc1 (centres undefined)"
study_target = "M14 melanoma"
measured_endpoint = "TGI"
unit_annotation = "µM"
number = 49.3


Give TGI for each of the items listed below.
1. COc1cc2c(cc1OC)C(OC)N(C)c1c-2ccc2cc3c(cc12)OCO3 (centres undefined)
2. C=C1C(=O)OC2/C=C(/C)C3CC(O)C(C)(CC(OC(=O)/C(C)=C/C)C12)O3 (centres undefined)
3. Cc1cc(O)c(C2=NN(c3ccc(S(N)(=O)=O)cc3)C(c3ccc(N(C)C)cc3)C2)c(C)c1Cl (centres undefined)
4. COC1=CC(=O)C(OC)=C(OC)C1=O

1. 25.6
2. 9.08
3. 29.4
4. 29.7

Give TGI for each of the items listed below.
1. COc1cc2c3c(n(CCCNCCCNCCCNCCCN)c(=O)c2cc1OC)-c1cc2c(cc1C3=O)OCO2
2. O=C1C=CC2=[N+]([O-])C(c3ccccc3)(c3ccccc3)C(=Nc3ccccc3)C2=C1
3. Cc1cc(N=Nc2c(O)ccc3ccccc23)ccc1N=Nc1cccc([N+](C)(C)C)c1
4. O=C(O)CCC/C=C\C[C@H]1C=CC(=O)/C1=C/C[C@@H](O)CCc1cccc(C(F)(F)F)c1
5. CCCCCCCCCc1cc[n+](CC(=O)c2ccc([N+](=O)[O-])cc2)cc1
6. COC(=O)c1c(O)c([N+](=O)[O-])cc2c1c1c(n2Cc2ccccc2)C(=O)c2ccccc2C1=O
7. CC1=C(C(=O)NCc2ccccc2)C(c2ccc([N+](=O)[O-])cc2)C(C(=O)NCc2ccccc2)=C(C)N1
8. Cc1ccc(N=N/C(=N/NC(=O)c2cc(Cl)ccc2C(=O)c2ccccc2)c2ccc(N(CCC#N)CCC#N)cc2C)cc1

1. 14.2
2. 3.76
3. 59.3
4. 6.76
5. 2.14
6. 24.1
7. 48.5
8. 41

###

Tested on: IGROV1 ovarian
EXPERIMENT_DESCRIPTION: NCI tumour cell line growth inhibition, 48 h
MEASURED_ENDPOINT: TGI

[[record]]
molecule = "CC(C)(C)OC(=O)N(O)CCCn1cnc2c(N)ncnc21"
measured_endpoint = "TGI"
result = "> 100 µM"

[[record]]
molecule = "O=C(Cc1csc(N=Nc2c(O)[nH]c3ccccc23)n1)Nc1ccccc1"
measured_endpoint = "TGI"
result = "30.5 µM"

[[record]]
molecule = "COc1cc(NC(C)=O)ccc1C(=O)NN1C(=O)C(Cl)C1c1ccco1 (stereo not given)"
measured_endpoint = "TGI"
result = "> 100 µM"

[[record]]
molecule = "Cc1cc(Nc2c3ccccc3nc3ccccc23)ccc1NS(C)(=O)=O"
measured_endpoint = "TGI"
result = "11 µM"

[[record]]
molecule = "O=C1O[C@H]2[C@H](O)[C@@H](OC(=O)c3cc(O)c(O)c4c3[C@@H]3C1=CC(=O)C(O)(O)C3(O)O4)[C@H](OC(=O)c1cc(O)c(O)c(O)c1)O[C@@H]2CO (stereo not given in full)"
measured_endpoint = "TGI"
result = "> 100 µM"


Give TGI for each of the items listed below.
1. CC(=O)O[C@H]1CCC2[C@@H]3CCC4=C(O)C(=O)C(C#N)C[C@]4(C)C3CC[C@@]21C (stereo not given in full)
2. CC1=C(C(=O)NCc2ccccc2)C(c2ccc([N+](=O)[O-])cc2)C(C(=O)NCc2ccccc2)=C(C)N1
3. COC1=CC23CCCN2CCc2cc4c(cc2C3C1O)OCO4 (stereo not given)
4. Nc1nc2cc3ccc(C4CC(O)C(CO)O4)cc3cc2c(=O)[nH]1 (stereo not given)
5. C=C1C(=O)OC2/C=C(/C)C3CC(O)C(C)(CC(OC(=O)/C(C)=C/C)C12)O3 (stereo not given)

1. > 100 µM
2. > 100 µM
3. > 100 µM
4. > 100 µM
5. 18.7 µM

Give TGI for each of the items listed below.
1. O=C(/C=C1\C[C@H]2C=Nc3ccccc3C(=O)N2C1)NCCCCNC(=O)/C=C1\C[C@H]2C=Nc3ccccc3C(=O)N2C1
2. CCOC(=O)C(=O)Nc1ccc(Cl)cc1C
3. CCOC(=O)Cc1csc2[n+]1C(=O)/C(=C\c1cccc(Cl)c1Cl)S2
4. CC(=O)C1C(=O)NC(=O)C1=O (stereo not given)
5. Cc1ccc(C2NC(=O)c3ccccc3N2)s1 (stereo not given)
6. [N-]=[N+]=Nc1c(C=O)c(=O)n(-c2ccccc2)c2ccccc12
7. CCOC(=O)Cc1csc2[n+]1C(=O)/C(=C/c1cccc(OC)c1O)S2

27.8 µM
> 100 µM
50.6 µM
> 100 µM
> 100 µM
44.8 µM
> 100 µM

Give TGI for each of the items listed below.
1. CN(C)/N=C(/c1nc2ccc([N+](=O)[O-])cc2[nH]c1=O)C(O)c1ccco1 (stereo not given)
2. Cc1cc(N=Nc2c(O)ccc3ccccc23)ccc1N=Nc1cccc([N+](C)(C)C)c1
3. COc1cc(C)cc2c1c(=O)c1ccccc1n2C

> 100 µM
> 22.2 µM
> 100 µM

###

Tested on: DMS 114 small cell lung
EXPERIMENT_DESCRIPTION: NCI tumour cell line growth inhibition, 48 h
MEASURED_ENDPOINT: TGI

Sample answers from the record:
[[record]]
compound = "CN(/N=C/c1cccc2cccnc12)c1ccc([N+](=O)[O-])cc1"
result = "> 100 µM"

[[record]]
compound = "CC(C)C1CC2C(=O)N(c3ccccc3)C(=O)C2c2[nH]c3ccccc3c21 (stereo not drawn)"
result = "> 100 µM"


Next compound, please.
Per the record, O=c1[nH]c2cc([N+](=O)[O-])ccc2nc1/C(=N/Nc1ccccc1)C(O)c1ccc(C(O)/C(=N\Nc2ccccc2)c2cnc3cc([N+](=O)[O-])ccc3n2)cc1 (stereo not drawn) has TGI of > 100 µM

###

Test system: KM12 colon
EXPERIMENT_DESCRIPTION: NCI tumour cell line growth inhibition, 48 h
MEASURED_ENDPOINT: TGI

Sample answers from the record:
[[record]]
compound = "CN1CCCCC(C#N)(c2ccccc2)CC1 (stereo not given)"
measured_endpoint = "TGI"
result = "> 100 µM"

[[record]]
compound = "Cc1ccc(NC(=O)C(=O)CC(=O)C2CCOC2=O)c(C)c1 (stereo not given)"
measured_endpoint = "TGI"
result = "> 100 µM"

[[record]]
compound = "CC(=O)Oc1cc2c(c3ncccc13)OC(C)(C)C2"
measured_endpoint = "TGI"
result = "30.7 µM"

[[record]]
compound = "O=C(CCCNc1nc(-c2ccccc2)cs1)c1cccs1"
measured_endpoint = "TGI"
result = "> 100 µM"

[[record]]
compound = "COc1cc(C)cc2c1c(=O)c1ccccc1n2C"
measured_endpoint = "TGI"
result = "> 100 µM"


Give TGI for each of the items listed below.
1. CN(CCO)c1nc(N)cc(=O)[nH]1
2. Clc1ccc(C2=Nn3c(nnc3-c3cc(Cl)cc(Cl)c3Cl)SC2)cc1
3. O=C(/C=C1\C[C@H]2C=Nc3ccccc3C(=O)N2C1)NCCCCNC(=O)/C=C1\C[C@H]2C=Nc3ccccc3C(=O)N2C1
4. COc1ccc(N/N=C(\CCN(C)C)c2ccccc2)cc1
5. CCN(CC)CCN1C(=O)c2c(c(-c3ccccc3)c3ccccc3c2-c2ccccc2)C1=O
6. CCOC(=O)C(=O)Nc1ccc(Cl)cc1C
7. CN(C)Cc1cc(C(C)(C)C)ccc1-c1ccc(C(C)(C)C)cc1CN(C)C

1: > 100 µM; 2: > 100 µM; 3: 33.3 µM; 4: 18 µM; 5: > 100 µM; 6: > 100 µM; 7: > 100 µM

Give TGI for each of the items listed below.
1. Cc1ccc2c(n1)C(=O)C=CC2=O
2. CC(=O)c1ccc2c(ccc(=O)n2C)c1
3. COc1ccc(-c2nc(C(=O)c3ccccc3)n(CC(=O)c3ccccc3)c2-c2ccc(OC)cc2)cc1
4. O=C(Nc1ccccc1O)c1ccc(CNc2ccnc(C(F)(F)F)c2)cc1

1. 46.2 µM
2. > 100 µM
3. > 100 µM
4. 23.3 µM

Cited source for all entries: PubChem BioAssay (NCI)
